tested on: UACC-257 melanoma; assay: NCI tumour cell line growth inhibition, 48 h
Each entry below carries its reported TGI.

Give reported TGI for COc1ccc2oc(=O)cc(C)c2c1 (UACC-257 melanoma)
> 100 µM

Give reported TGI for CCCCCCCCC(=O)N(C)C1C2CN3CCC(O2)C13 (stereo not drawn) (UACC-257 melanoma)
> 100 µM

Give reported TGI for COc1cc2c3c(n(CCCNCC(OC)OC)c(=O)c2cc1OC)-c1cc2c(cc1C3=O)OCO2 (UACC-257 melanoma)
> 89.2 µM

----------
test system: OVCAR-8 ovarian; experiment: NCI tumour cell line growth inhibition, 48 h
Each entry below carries its reported TGI.

compound	target.of.assay	TGI
C=CCOC1OC(CS(=O)(=O)O)C(O)C(O)C1O (stereo unspecified)	OVCAR-8 ovarian	> 100 µM

Give reported TGI for COc1ccc(-c2nnc(SCC(=O)Nc3ccc(/C(C)=N\O)cc3)n2-c2ccccc2)cc1OC (OVCAR-8 ovarian)
> 100 µM

Give reported TGI for CN1CCN(c2nc(NCCCCNc3ccnc4cc(Cl)ccc34)c3ccccc3n2)CC1 (OVCAR-8 ovarian)
20.1 µM

Give reported TGI for C=CCNCCCN1C(=O)c2ccc3c4c(ccc(c24)C1=O)C(=O)N(CCCNCC=C)C3=O (OVCAR-8 ovarian)
2.11 µM

Give reported TGI for NC1CC(N)c2c(Br)sc(Br)c21 (stereo unspecified) (OVCAR-8 ovarian)
> 100 µM

Give reported TGI for CCO[C@@H]1CCC(S(=O)c2ccc(C)cc2)=CO1 (stereo partly specified) (OVCAR-8 ovarian)
> 100 µM

----------
Each entry below carries its reported TGI.
test system: DU-145 prostate; test: NCI tumour cell line growth inhibition, 48 h

In the examples that follow, each entry is paired with its recorded TGI.
molecule	target.of.assay	TGI
CC(=O)Oc1ccc2c(C)cc(=O)oc2c1	DU-145 prostate	> 100 µM
CCN1CCN(CC(=O)Nc2nc3ccc(NCc4ccc(Cl)cc4)cc3s2)CC1	DU-145 prostate	> 100 µM
C=CC1=C[C@@H]2[C@@H]3O[C@]4(CC[C@H](O4)[C@@H](C)C[C@@H](O)C3=O)C[C@H](O)C3=NCC[C@@]32CC1	DU-145 prostate	0.00335 µM
CCN(CC)CCC1CCCCN1CC(=O)N1c2ccccc2NC(=O)c2ccccc21 (stereo unspecified)	DU-145 prostate	> 100 µM
O=C(c1ccco1)n1c2ccc(Br)cc2c2nc3ccccc3nc21	DU-145 prostate	> 100 µM

Field: next molecule
Supply measured TGI of C[C@]12CC[C@@H]3c4ccc(O)cc4CC[C@H]3[C@@H]1CC[C@@H]2NS(=O)(=O)c1cccc(C(F)(F)F)c1 in your reply.
18.4 µM

----------
system: RXF 393 renal; experiment: NCI tumour cell line growth inhibition, 48 h; in the data active = GI50 below about 0.43 µM; inactive = the rest
A correct response names exactly one class from active, inactive

As a guide, the following entries are already answered.
compound	category
CC(C)[C@@]12C[C@@H](OC(=O)COC(=O)/C=C/c3ccccc3)[C@@](C)(O1)[C@@H]1CC[C@@H](C)[C@H]1[C@@H]2OC(=O)/C=C/c1ccccc1	inactive
O=C1C=C[C@@]23C[C@@H](Nc4c(O)c5c6c(c42)=NCCC=6C=N5)SC3=C1	inactive
COc1ccc(-c2nnc(SCC(=O)Nc3ccc(/C(C)=N\O)cc3)n2-c2ccccc2)cc1OC	inactive
CC(C)C[C@H](NC(=O)[C@H]1O[C@@H]1C(=O)O)C(=O)NCCc1ccc(O)cc1	inactive
N#Cc1c(N)nc(N2CCOCC2)c(C#N)c1-c1ccc(Cl)cc1	inactive

// outcome(item) with item = O=C1CC(c2ccc3c(c2)OCO3)Nc2cc3c(cc21)OCO3 (stereo not drawn)
active

// outcome(item) with item = O=C(/C=C/c1cccs1)c1ccc(Nc2nc(Nc3ccc(F)cc3)nc(Nc3ccc(F)cc3)n2)cc1
inactive

// outcome(item) with item = N=c1c2c(-c3ccccc3)c(-c3ccccc3)n(Cc3ccccc3)c2ncn1CCCO
inactive

// outcome(item) with item = Cn1ccnc1C(=O)/C=C/c1ccc(CC(=O)Nc2ccc(S(F)(F)(F)(F)F)cc2)cc1
inactive

// outcome(item) with item = C/C(=C\c1ccn(-c2ccc(N)c(F)c2)n1)[C@@H]1C[C@@H]2O[C@]2(C)CCC[C@H](C)[C@H](O)[C@@H](C)C(=O)C(C)(C)[C@@H](O)CC(=O)O1
active

// outcome(item) with item = C[C@H]1[C@H](C)CC[C@]2(C(=O)N3CCN(C)CC3)CC[C@]3(C)C(=CC[C@@H]4[C@@]5(C)C/C(=C/c6cccnc6)C(=O)C(C)(C)[C@@H]5CC[C@]43C)[C@H]12
inactive

// outcome(item) with item = CCc1cccc2c3c(sc12)C(c1ccc(Cl)cc1)C(C#N)=C(N)O3 (stereo not drawn)
active

// outcome(item) with item = [C-]#[O+].[C-]#[O+].[C-]#[O+].[C-]#[O+].[Ir].[Ir].[O-]c1ccc2ccccc2c1C=Nc1ccc(N=Cc2c([O-])ccc3ccccc23)cc1
inactive

----------
tested on: DMS 273 small cell lung; assay: NCI tumour cell line growth inhibition, 48 h
Each entry below carries its reported TGI.

In the examples that follow, each entry is paired with its recorded TGI.
compound	TGI
O=C(/C=C/c1ccc(Cl)c(Cl)c1)c1ccc(F)cc1	26.9 µM
NNC(=O)CCC(=O)Nc1cc(Cl)c(Cl)cc1Cl	> 100 µM
COc1ccc(C2C(=O)C(Cl)N2Nc2nc(C)cc(=O)[nH]2)cc1OC (stereo not given)	84.3 µM
COc1cc(Cn2c(=S)ss/c2=N\C(=S)N(C)C)cc(OC)c1OC	> 100 µM
COc1ccc2cc1Oc1ccc(cc1)C[C@@H]1c3cc(c(OC)cc3CCN1C)Oc1c(OC)c(OC)cc3c1[C@@H](C2)N(C)CC3	35.3 µM

Supply measured TGI of CCC(CC)n1cc(C(=O)NC(=O)NCCCCCOC(=O)CCCCCCCCCCC(=O)OCCCCCNC(=O)NC(=O)c2cn(C(CC)CC)c(=O)[nH]c2=O)c(=O)[nH]c1=O in your reply.
> 100 µM

Supply measured TGI of Cc1cc(C)c2c(c1)Nc1ccccc1P2c1ccccc1 (stereo not given) in your reply.
50.7 µM

Supply measured TGI of COc1ccc(C(Cc2cc(OC)c(OC)c(OC)c2)C(=O)O)cc1 (stereo not given) in your reply.
> 100 µM

Supply measured TGI of C=CN1C(=O)OC[C@@H]1c1ccccc1 in your reply.
50.7 µM

Supply measured TGI of Nc1ccn(CCO)c(=O)n1 in your reply.
> 100 µM

----------
Each entry below carries its reported TGI.
test system: XF 498 CNS; experiment: NCI tumour cell line growth inhibition, 48 h

compound	TGI
COc1cc(Cl)cc(N(O)C(C)=O)c1OCc1ccccc1	> 100 µM

Supply measured TGI of O=C1NCCCC12CCCNC2=O in your reply.
> 100 µM

Supply measured TGI of COc1ccc(N(C)Sc2ccccc2)cc1 in your reply.
96.6 µM

Supply measured TGI of NNC(=O)CCC(=O)Nc1cc(Cl)c(Cl)cc1Cl in your reply.
> 100 µM

Supply measured TGI of [C-]#[O+].[C-]#[O+].[C-]#[O+].[C-]#[O+].[Ir].[Ir].[O-]c1ccc2ccccc2c1C=Nc1ccc(N=Cc2c([O-])ccc3ccccc23)cc1 in your reply.
> 100 µM

Supply measured TGI of O=C1OC(CC(=O)c2ccc(Cl)cc2Cl)C(Cl)=C1Cl (stereo not given) in your reply.
45.6 µM

Supply measured TGI of CCc1ccccc1N1CCN(C(=O)c2cc(OC)c(OC)c(OC)c2)CC1 in your reply.
17.9 µM

Supply measured TGI of CC(=O)Nc1ccc(/C=N\N2C(=O)c3ccccc3C2=O)cc1 in your reply.
> 100 µM

Supply measured TGI of COc1ccccc1N1C(Cl)C(=O)C1c1c[nH]c2ccccc12 (stereo not given) in your reply.
> 100 µM

----------
system: MDA-N; experiment: NCI tumour cell line growth inhibition, 48 h
assay.metric: TGI

molecule	TGI
COc1cc2c(cc1OC)CC(=O)c1cc(OC)c(OC)cc1/C=C\2	7.36 µM
NC1CC(N)c2c(Br)sc(Br)c21 (stereo unspecified)	> 100 µM
COc1cc(C[C@H]2C(=O)OC[C@@H]2Cc2ccc(OC)c(OC)c2)cc(OC)c1	> 100 µM
COc1cc(Cn2c(=S)ss/c2=N\C(=S)N(C)C)cc(OC)c1OC	3.01 µM
CCCCn1cnnc1NS(=O)(=O)c1cc(C)c(Cl)cc1SCC(=O)O	> 10 µM
c1ccc(-c2ccc(-c3cc4ccccc4[nH]3)cc2)cc1	> 100 µM
O=c1c2c(c1=O)C1(SCCCS1)c1cc(Cl)ccc1O2	> 100 µM
O=C1NC(=S)NC(=O)C1C(c1ccc([N+](=O)[O-])cc1)C1C(=O)NC(=S)NC1=O	> 100 µM

Supply measured TGI of COc1ccc(C2C3CCc4ccccc4C3=NN2S(=O)(=O)c2ccc(Cl)cc2)cc1 (stereo unspecified) in your reply.
9.19 µM

Supply measured TGI of c1cc(CCN2CCCCC2)ccn1 in your reply.
> 100 µM

Supply measured TGI of COC(=O)C12OC(C)(C(CC(=O)OC(C)(C)C)C1=O)C1C(=O)N(c3ccccc3)C(=O)C12 (stereo unspecified) in your reply.
> 100 µM

Supply measured TGI of CN1CCN(c2cc3c(cc2F)c(=O)c(C(=O)O)cn3C2CC2)CC1CC#N (stereo unspecified) in your reply.
> 100 µM
